A collection of compounds and their measured %Inh
Tested on: EPHB2
Details: concentration: 1 μM, replicates: in singlicate; n = 1;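 further: KINOMEscan kinase panel screen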
Give the number; % is assumed, so skip it.

Answered cases to consult:
Any idea what its %Inh is? The compound is COc1cccc(NC(=O)NC2CCN(c3ccnc(Nc4cc(OC)c(OC)c(OC)c4)n3)C2)c1 (centres unmarked)
8

Then CCCCc1nn2ncccc2c1-c1ccnc(Nc2ccc(N3CCN(C)CC3)cc2)n1 ?
26

Moving on to the next compound: Cl.NC(=O)c1cccc(Nc2nccc(Nc3ccc(Oc4c(Cl)cccc4Cl)c(Cl)c3)n2)c1
0

Also need Cl.Cl.NCC(NC(=O)c1cc(-c2ccccc2)c(-c2ccnc3[nH]ccc23)s1)c1ccccc1 (centres unmarked) , thanks.
0

Next compound up: CN(C)S(=O)(=O)c1cc(-c2ccc3nccc(-c4cccc(S(N)(=O)=O)c4)c3c2)cnc1N
0

Others:
Item O=C(Nc1cccc(Oc2ccc3nc(NC(=O)C4CC4)cn3n2)c1)c1ccccc1C(F)(F)F has what recorded %Inh?
19

Likewise for Nc1ncnc2c1nc(-c1ccccc1)n2-c1ccccc1 ?
0

Now try O=c1[nH]cc(-c2ccc(N3CCOCC3)cc2)c2sc(-c3cn[nH]c3)cc12 .
0

* * *

System: CLK3
Conditions: concentration: 1 μM, replicates: in singlicate; n = 1
Param label: returns Met when %Inh < 30%, returns Not met otherwise, including exact equality.

Please let me know if COc1ccc(Nc2nccc(N3CCC(NC(=O)Nc4cccc(OC)c4)C3)n2)cc1 (centres unmarked) [GSK1379742] shows %Inh below 30%.
Not met

Next compound up: CNC(=O)c1ccccc1Nc1nc(Nc2ccc(N3CCOCC3)cc2)ncc1Cl.Cl [GSK1576028]
Not met

Continue with O=C(Nc1ccccc1F)NC1CCN(c2ccnc(Nc3ccc(F)cc3)n2)CC1 [GSK1379800]
Met

Continue with CSc1cccc2c(-c3ccncn3)c(-c3ccc(F)cc3)nn12 [GW514786]
Met

What do we get for C[C@@H]1CC[C@@H](C(=O)Nc2ccccc2)CN1c1cc(-c2ccc3c(N)n[nH]c3c2)nc(N)n1 [GSK2286062] ?
Met

Try Cc1ccc(C(=O)Nc2ccc(Nc3ccnc4cc(-c5nccs5)ccc34)cc2O)cc1.Cl [GW494702] next.
Met

Further cases:
Determine whether this compound shows %Inh lower than 30% (ties excluded): COc1ccc(-c2coc3ccc(-c4nnc(SCc5ccc(OC)c(C(F)(F)F)c5)o4)cc23)cc1
Met

Do the same for Cc1cccc(Nc2nc(N[C@H]3CCNC3)ncc2C(N)=O)c1.Cl [GSK2197149] please
Not met

And then O=C(Nc1n[nH]c2nc(-c3ccc(O)cc3)ccc12)C1CC1 [SB-710363] , what is it?
Met

// same read-out, input: Cl.Cl.NCC(NCc1ccc(-c2ccnc3[nH]ccc23)s1)c1ccccc1 (centres unmarked) [GSK1321565]
Not met

Repeat with CN(C)Cc1ccc(-c2ccc3c(Nc4ccc(Oc5ccccn5)cc4)ccnc3c2)o1 [GW567148]
Met

// next record O=C(O)C(F)(F)F.O=C(O)C(F)(F)F.O=c1[nH]ccc2nc(N[C@@H]3CCCNC3)nc(Nc3ccc(S(=O)(=O)N4CCOCC4)cc3)c12 [GSK2177277]
Not met

Moving on to the next compound: Cl.Cl.NCC(C(=O)Nc1cc(Br)c(-c2ccnc3[nH]ccc23)s1)c1ccccc1 (centres unmarked) [GSK1269851]
Not met

What about CN(c1ccc(NC(=O)Nc2cc(C(F)(F)F)ccc2F)cc1)c1ccnc(Nc2ccc(S(N)(=O)=O)cc2)n1 [GW809893] ?
Met

Proceed to CCn1c(-c2nonc2N)nc2c(C#CC(C)(C)O)nc(OC[C@H](N)c3ccccc3)cc21 [GSK943949]
Met

Continue with O=C(Nc1cccc(Oc2ccc3nc(NC(=O)C4CC4)cn3n2)c1)c1ccccc1C(F)(F)F
Not met

Likewise for Cl.c1ccc(-c2ccc3c(Nc4ccc5[nH]ncc5c4)ccnc3c2)nc1 [GW440137] ?
Met

* * *

System: RPS6KA4(Kin.Dom.1-N-terminal)
Settings: concentration: 1 μM, replicates: in singlicate; n = 1
RECORDED METRIC: %Inh (%)
Dear colleague, please return just the value in %, with no unit written.

Solved cases (5 shown):
Missing value: %Inh, RPS6KA4(Kin.Dom.1-N-terminal), entry Cl.NC(=O)c1cccc(Nc2nccc(Nc3ccc(Oc4c(Cl)cccc4Cl)c(Cl)c3)n2)c1 . Fill in?
0

Now try Cc1ccc(S(=O)(=O)Nc2ccc(Nc3nccc(Nc4cccc5[nH]ncc45)n3)cc2)cc1 .
0

Please answer likewise for O=C(NC1CCN(c2ccnc(Nc3ccc(F)cc3)n2)C1)c1cc2ccccc2s1 (centres unmarked)
17

Queued: Cl.Cl.NCC(C(=O)Nc1cc(Br)c(-c2ccnc3[nH]ccc23)s1)c1ccccc1 (centres unmarked)
18

Also check Cn1cc(-c2[nH]c3cc(NC(=O)[C@H](N)C4CCCCC4)cc4c3c2C=NNC4=O)cn1
96.8

***
Look up %Inh with RPS6KA4(Kin.Dom.1-N-terminal) for this compound: Cn1cc(-c2ccc3c(c2)CCN3C(=O)Cc2cccc(F)c2)c2c(N)ncnc21
7

Also, Oc1cc(Nc2ccnc3cc(I)ccc23)ccc1F please.
0

What do you get for COC(=O)Nc1nc2cc(Oc3ccc(NC(=O)Nc4cc(C(F)(F)F)ccc4F)cn3)ccc2[nH]1.Cl.Cl ?
9

* * *

Test system: CASK
Details: concentration: 1 μM, replicates: in singlicate; n = 1
# %Inh per entry
Give just the number in %; leave the unit off.

Past entries and their recorded results:
Would you mind telling me what %Inh value was observed for COc1cc(Nc2nccc(N3CCC(NC(=O)Nc4cccc(C(C)=O)c4)C3)n2)cc(OC)c1OC (centres unmarked) [GSK1379753] ?
0

Query COc1cccc(C2=C(Nc3ccc(Cl)c(C(=O)O)c3)C(=O)NC2=O)c1 [SB-390769] next
100

// next record Nc1ncc(-c2cccnc2)c2scc(-c3ccc4c(c3)CCN4C(=O)Cc3ccccc3)c12 [GSK683281]
26

Record: CCn1c(-c2nonc2N)nc2c(C#CC(C)(C)O)nc(OC[C@H](N)c3ccccc3)cc21 [GSK943949]
25

What do you have for Fc1ccc(-c2ncn(C3CCNCC3)c2-c2ccnc(Oc3ccc(-c4ccccc4)cc3)n2)cc1 [SB-245391] ?
7

Others:
Which %Inh value belongs to O=C(Nc1cccc(-c2nn3ncccc3c2-c2ccnc(Nc3ccccc3)n2)c1)c1c(F)cccc1F [GSK198271] ?
3

Another compound to check: CC(C)c1nc(-c2cccc(NS(=O)(=O)c3c(F)cccc3F)c2F)c(-c2ccnc(Nc3ccc(N4CCOCC4)nc3)n2)s1 [GSK2008607]
0

Ok, now CN1CCN(Cc2cccc(-c3ccc4c(Nc5ccc(Oc6ccccc6)cc5)ccnc4c3)c2)CC1 [GW578342]
1

* * *

Each item that follows carries a reported %Inh.
Test system: PIK3C2G
Conditions: concentration: 1 μM, replicates: in singlicate; n = 1
Numbers only; they are read as %.

Observed %Inh on PIK3C2G for CNC(=O)c1ccccc1Nc1nc(Nc2ccc(N3CCOCC3)cc2)ncc1Cl.Cl , please.
0

Another: O=c1[nH]cc(-c2ccc(N3CCOCC3)cc2)c2sc(-c3cn[nH]c3)cc12
0

---
Kindly state the measured %Inh obtained for Nc1ncnc2c1nc(-c1ccccc1)n2-c1ccccc1 with PIK3C2G.
6

Also need Clc1ccc(-c2nn3ncccc3c2-c2ccnc(Nc3ccc4c(c3)OCCO4)n2)cc1 , thanks.
0

Param item: COc1ccc(Nc2nccc(N3CCC(NC(=O)Nc4cccc(OC)c4)C3)n2)cc1 (centres unmarked)
0

* * *

Test system: PRKD2
Conditions: concentration: 1 μM, replicates: in singlicate; n = 1
RECORDED METRIC: %Inh (%)
Note: unit % is implicit; provide only the numeric part.

# annotated cases, reported %Inh shown
Quick one: %Inh of Cl.Cl.NCC(C(=O)Nc1cc(Br)c(-c2ccnc3[nH]ccc23)s1)c1ccccc1 (centres unmarked) ?
0

Let us now turn to NCCCC(NC(=O)c1cc(Br)c(-c2ccnc3[nH]ccc23)s1)c1ccccc1.O=C(O)C(F)(F)F.O=C(O)C(F)(F)F (centres unmarked)
36

Similarly, c1ccc(-c2n[nH]cc2Nc2ccnc3ccccc23)nc1 ?
96.2

Likewise for O=C(Nc1n[nH]c2cc(-c3ccoc3)ccc12)C1CC1 ?
0

Alright, here's another compound for you.
%Inh lookup needed for Cc1ccc(S(=O)(=O)Nc2ccc(Nc3nccc(Nc4cccc5[nH]ncc45)n3)cc2)cc1 , thanks.
0

* * *

System: ABL1-phosphorylated
Settings: concentration: 1 μM, replicates: in singlicate; n = 1
Lab note: compare %Inh with 80%, writing True if less and False if equal or more.

Does this compound meet the criterion %Inh < 80%? COc1cccc(NC(=O)NC2CCN(c3ccnc(Nc4cc(OC)c(OC)c(OC)c4)n3)C2)c1 (stereo not shown)
True

Queued: NCCCC(NC(=O)c1cc(Br)c(-c2ccnc3[nH]ccc23)s1)c1ccccc1.O=C(O)C(F)(F)F.O=C(O)C(F)(F)F (stereo not shown)
True

Thanks! And CC(C)c1nc(-c2cccc(NS(=O)(=O)c3c(F)cccc3F)c2F)c(-c2ccnc(Nc3ccc(N4CCOCC4)nc3)n2)s1 ?
False

Cl.Cl.NCC(C(=O)Nc1cc(Br)c(-c2ccnc3[nH]ccc23)s1)c1ccccc1 (stereo not shown) , same question.
True

Same question for COc1ccc(CNC(=O)NC2CCN(c3ccnc(Nc4ccc(F)cc4)n3)CC2)cc1 please.
True

Another compound to check: CCn1c(-c2nonc2N)nc2c(C#CC(C)(C)O)nc(OC[C@H](N)c3ccccc3)cc21
True

Next compound up: c1ccc(-c2cnc3nccnn23)cc1
True

Subsequent entry: Cn1cc(-c2[nH]c3cc(NC(=O)[C@H](N)C4CCCCC4)cc4c3c2C=NNC4=O)cn1
False

Same read-out for COc1cc(Nc2ncc3c(C)nc(-c4cc5ccccc5[nH]4)n3n2)cc(OC)c1OC ?
True

Would you mind doing CCCCc1nn2ncccc2c1-c1ccnc(Nc2ccc(N3CCN(C)CC3)cc2)n1 as well?
False

Further cases:
Dear reviewer, please state whether Cc1occc1-c1ncc(OC[C@@H](N)Cc2c[nH]c3ccccc23)cc1-c1ccc2[nH]nc(C)c2c1.O=C(O)C(F)(F)F has %Inh strictly beneath 80%.
True

Okay, and O=C(O)C(F)(F)F.O=C(O)C(F)(F)F.O=c1[nH]ccc2nc(N[C@@H]3CCCNC3)nc(Nc3ccc(S(=O)(=O)N4CCOCC4)cc3)c12 ?
False

Repeat with COCCOCCOc1cc2ncc3c4ccc(C#N)cc4[nH]c3c2cc1OC
True

Also check Cc1ccc(C(=O)N2CC[C@@H](O)C2)cc1-n1c(C)cc(OCc2ccc(F)cc2F)c(Br)c1=O
False

How about this compound: O=C(NC1CCN(c2ccnc(Nc3ccc(F)cc3)n2)C1)c1cc2ccccc2s1 (stereo not shown)
True

Moving on to the next compound: Cc1cccc(NC(=O)Nc2ccc(Oc3ncnc4ccn(C)c34)cc2)c1
True
